FYI, the data here is from patent US9260417B2.

- Study target: FLT3 (Homo sapiens (Human), UniProt P36888)
- Sequence (P36888 27-993): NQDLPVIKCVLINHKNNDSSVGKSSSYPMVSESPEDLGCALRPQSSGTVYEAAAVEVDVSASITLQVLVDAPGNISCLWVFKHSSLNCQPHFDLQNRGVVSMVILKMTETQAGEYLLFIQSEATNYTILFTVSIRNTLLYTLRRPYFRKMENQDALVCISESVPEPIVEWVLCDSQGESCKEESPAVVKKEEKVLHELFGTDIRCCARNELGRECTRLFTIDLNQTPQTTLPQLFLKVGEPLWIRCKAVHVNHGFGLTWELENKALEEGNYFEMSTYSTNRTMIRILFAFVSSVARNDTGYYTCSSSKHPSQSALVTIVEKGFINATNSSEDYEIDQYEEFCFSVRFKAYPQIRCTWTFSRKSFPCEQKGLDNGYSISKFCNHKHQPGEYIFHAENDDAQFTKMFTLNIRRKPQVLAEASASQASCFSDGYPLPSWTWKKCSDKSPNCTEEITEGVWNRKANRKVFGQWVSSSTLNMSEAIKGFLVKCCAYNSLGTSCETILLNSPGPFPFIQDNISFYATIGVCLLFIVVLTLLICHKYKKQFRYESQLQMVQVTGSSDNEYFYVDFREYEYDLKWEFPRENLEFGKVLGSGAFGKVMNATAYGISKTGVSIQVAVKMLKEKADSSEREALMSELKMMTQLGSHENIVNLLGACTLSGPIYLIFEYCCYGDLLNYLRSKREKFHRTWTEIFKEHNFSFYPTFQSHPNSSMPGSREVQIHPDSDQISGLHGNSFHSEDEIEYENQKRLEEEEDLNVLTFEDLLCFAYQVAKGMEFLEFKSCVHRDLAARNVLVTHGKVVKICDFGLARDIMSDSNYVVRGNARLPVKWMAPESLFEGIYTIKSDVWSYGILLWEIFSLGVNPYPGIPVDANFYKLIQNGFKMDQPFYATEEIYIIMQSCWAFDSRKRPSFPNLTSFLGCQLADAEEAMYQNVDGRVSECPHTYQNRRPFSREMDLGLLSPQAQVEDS
- Protocol summary: KINOMEscan competitive binding assay
pKd: −log10 of the molar value.
Parameter: pKd

[[record]]
compound = "Nc1cc(Oc2ccc(-c3nnc(Nc4cccc(C(F)(F)F)c4)[nH]3)cc2)ncn1 [Compound 3]"
study_target = "FLT3 (Homo sapiens (Human), UniProt P36888)"
parameter = "pKd"
value = 8.85


====

- Test system: CHL-1
- Protocol summary: Tumor cell viability
- Type: cell-based
- Condition: Homo sapiens; Melanoma CHL-1
- Protocol: For XTT assays, cells were grown in 96-well plates overnight and all assays were conducted in growth medium will full serum and additives. […] Dose-response curves were plotted using GraphPad Prism software and EC50s were calculated using this program.
Parameter: EC50

[[record]]
molecule = "CNC(=O)c1cc(Oc2ccc(NC(=O)Nc3ccc(Cl)c(C(F)(F)F)c3)cc2)ccn1 [sorafenib, reference compound]"
parameter = "EC50"
value = "6.1 µM"

